Target: PRS5B (Human immunodeficiency virus 1, UniProt P03367, A522V/A571V/C567A/C595A/E521D/E535N/G573T/I584V/L510I/L524M/M536I/N583D/Q507K/V511I, form not given)
Experiment: FRET-based enzyme kinetic inhibition assay
Settings: read-out: Ki for PRS5B; FRET substrate, 50 mM MES pH 5.6, 37°C; mean ± SD (n=3–5)
measurement_label: Ki (nM)
Answers are plain numbers, in nM.

Recorded results for 2 molecules are shown here.
Cc1cccc(C)c1OCC(=O)N[C@@H](Cc1ccccc1)[C@@H](O)C[C@H](Cc1ccccc1)NC(=O)[C@H](C(C)C)N1CCCNC1=O ... 160
CCC[C@@]1(CCc2ccccc2)CC(O)=C([C@H](CC)c2cccc(NS(=O)(=O)c3ccc(C(F)(F)F)cn3)c2)C(=O)O1 ... 8.6

# evaluate next
Give the reported Ki for this molecule. COC(=O)N[C@H](C(=O)N[C@@H](Cc1ccccc1)[C@@H](O)CN(Cc1ccc(-c2ccccn2)cc1)NC(=O)[C@@H](NC(=O)OC)C(C)(C)C)C(C)(C)C 8.4

Cited source for all entries: paper PMC7343616
